B1: ZBTB22 (parent)
chain: FSSSSQEAFAASAVGSGERRGGGP

Variants of: B1
Assay: protein stability index of a GFP-peptide fusion (GPS, HEK-293T) (PSI 1-6); higher = more stable;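 also: lentivirally expressed fusions sorted by FACS into six bins by GFP to DsRed ratio, PSI derived from sequencing read proportions per bin multiplied by bin number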
Details: c terminus: a fixed tail appended
ENDPOINT: protein stability index
Numbers only.

Recorded protein stability index, per entry:
FSSSSQEAFAAVAVGSGERRGGGP [S12V] | 2.87
FSSSSQEAFTASAVGSGERRGGGP [A10T] | 3.26
FSSSSQEAFAASAVGSGEREGGGP [R20E] | 4.12
FSSSSQEAFAASAVGSGERRGGGT [P24T] | 3.07
FSSSSQEAFDASAVGSGERRGGGP [A10D] | 5.25

Lab note: each variant below needs its protein stability index filled in.
1. FFSSSQEAFAASAVGSGERRGGGP [S2F]
2. LSSSSQEAFAASAVGSGERRGGGP [F1L]
3. FSSSSQEAFAASAVGSNERRGGGP [G17N]
4. FSSSSQEAFAASAVGSGEARGGGP [R19A]

1. 4.08
2. 5.29
3. 3.28
4. 3.43
